Test: Plasma and urine pharmacokinetics of ASP3026
Assay type: in vivo, human
Details: human, plasma, oral, Mean tmax across the dose groups, Day 1
reported_endpoint: Tmax

> print(dat)
                                smiles.repr  observed.value
1  COc1cc(N2CCC(N3CCN(C)CC3)CC2)ccc1Nc1ncnc(Nc2ccccc2S(=O)(=O)C(C)C)n1  2.12 to 4.52 h

----------
Experiment: Plasma and urine pharmacokinetics of ASP3026
Type: in vivo, human
Settings: human, plasma, oral, Median tmax across the dose groups, Day 28
reported_endpoint: Tmax

> print(dat)
                                   compound  reported.endpoint  observed.value
1  COc1cc(N2CCC(N3CCN(C)CC3)CC2)ccc1Nc1ncnc(Nc2ccccc2S(=O)(=O)C(C)C)n1 [ASP3026]               Tmax     2.48 to 3 h
